# EXPERIMENTAL TARGET: Gap junction beta-2 protein (Homo sapiens) (UniProt P29033)
# PROCEDURE TEXT: Inhibition of human Cx26 expressed in kanamycin-resistant Escherichia coli LB2003 cells in medium containing […] K+ and 500 uM IPTG by measuring cell growth at 15 uM after 18 hrs by growth complementation assay
# Parameters: scale not given: the % may be the effect or the level left
ASSAY READOUT: Activity (%)

>>> val("N[C@@H]1[C@@H](O)[C@@H](O[C@@H]2[C@@H](O)[C@H](O[C@H]3O[C@H](CNC(=O)c4ccccc4-c4c5ccc(=O)cc-5oc5cc(O)ccc45)[C@@H](O)[C@H](O)[C@H]3O)[C@@H](N)C[C@H]2N)O[C@H](CO)[C@H]1O")
22.3
>>> val("CCCCCCC(=O)NC[C@H]1O[C@H](O[C@H]2[C@H](O)[C@@H](O[C@H]3O[C@H](CO)[C@@H](O)[C@H](N)[C@H]3O)[C@H](N)C[C@@H]2N)[C@H](O)[C@@H](O)[C@@H]1O")
22.5

(A) NC[C@H]1O[C@H](O[C@H]2[C@H](O)[C@@H](O[C@H]3O[C@H](COc4ccc(-c5nc6ccccc6[nH]5)cc4)[C@@H](O)[C@H](N)[C@H]3O)[C@H](N)C[C@@H]2N)[C@H](O)[C@@H](O)[C@@H]1O
(B) N[C@@H]1[C@@H](O)[C@@H](O[C@@H]2[C@@H](O)[C@H](O[C@H]3O[C@H](CNC(=O)CCCc4cc5ccc6cccc7ccc(c4)c5c67)[C@@H](O)[C@H](O)[C@H]3O)[C@@H](N)C[C@H]2N)O[C@H](CO)[C@H]1O
Param pair: A , B . Output: the one whose Activity is numerically greater. Mark your answer with the label of the selected entry.
A
